Assay: Components of the Cytosolic LPS Sensing Pathway: Gene Identification via Genome-wide siRNA Screen
Conditions: RAW264.7 macrophages, IL-1a HTRF, actives lie on both sides, screened at 100 nM (by protocol), cells primed 5 h with Pam3CSK4 first
Among all 53,000 sequences or so, about 3,700 (7%) were called active.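 How the source made its calls: active means gene knockdowns whose robust z-score for IL-1 alpha signal is at least 2 or at most -2, so actives lie on both sides; inactive means the rest.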 This is one part of a sample in which actives are shown more often than they occur.
Give your call using only these classes: active, inactive

(Q) State the result this test recorded for GGAAUCCUUUCCUAAAUUGTT against Lin9 .
(A) inactive

(Q) I would be grateful if you could indicate the recorded call for GGAAAUAAACCACCUCUUCTT against Olfr437 .
(A) active

(Q) For GGAGGAACCCUCAUUUUAGTT against Prxl2c , which call appears in the assay record?
(A) inactive

(Q) Check the results log: what was the call for GGAACACUGUAUCUUACGGTT against Mtmr6 ?
(A) inactive

(Q) // return assay outcome for GCUUAUGUUGUUGUGCAUUTT against Zfyve21
(A) inactive

(Q) Tell me the recorded outcome of this test for GGAAAUCUAAAAGUCCUCCTT against Il17re .
(A) inactive

(Q) What did this assay record as the result for GGUAUAGCGGUGCAUGUCATT against Bmp8a ?
(A) inactive

(Q) Which outcome was entered for the sequence GCAUAGUUGGAACCGUAUUTT against Tdpoz3 in this test?
(A) active

* * *

Assay: Components of the Cytosolic LPS Sensing Pathway: Gene Identification via Genome-wide siRNA Screen
Conditions: RAW264.7 macrophages, IL-1a HTRF, actives lie on both sides, screened at 100 nM (by protocol), cells primed 5 h with Pam3CSK4 first
The whole screen tested about 53,000 sequences, of which about 3,700 (7%) were called active.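 Rule for the calls: active = gene knockdowns whose robust z-score for IL-1 alpha signal is at least 2 or at most -2, so actives lie on both sides; inactive = the rest.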 Many of the other results were omitted from the sample, so actives are more common in it than they were.
Use one of these outcomes when replying: 1.0 = active, 0.0 = inactive

SEQUENCE_INPUT	DISCRETE_LABEL
CCGAAGCUUUAUCUUCUAUTT against Pkd2	0.0
CCAAGUUGGCAUACUAUUCTT against Pank4	0.0
GCAGGAUCCUGAAACCAUGTT against Lrrc14	1.0
GCAGAAGAAGAAGGGUUCCTT against Emx1	1.0
GGUUGAUGGGAAAACAAUATT against Rab11a	0.0
CUAUGUGGUCACAAUAGAGTT against Olfr1360	0.0
GCCCGUAUAGGUAUUGGUCTT against Mpg	1.0
CCACAGGGACAACAAACUATT against Arid3b	0.0

Lab note: next sequence to report on.
(Q) GET /call?item= CGAGAUUGUGCUGAUAGAGTT against Nptx2 returns the recorded outcome of this test.
(A) 0.0

* * *

Experiment: Components of the Cytosolic LPS Sensing Pathway: Gene Identification via Genome-wide siRNA Screen;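 further: robust z of the log signal after scaling to non-targeting control siRNA wells of the plate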
Settings: RAW264.7 macrophages, IL-1a HTRF, actives lie on both sides, screened at 100 nM (by protocol), cells primed 5 h with Pam3CSK4 first
Screen size: about 53,000 sequences; about 3,700 (7%) were called active.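 Rule for the calls: active = gene knockdowns whose robust z-score for IL-1 alpha signal is at least 2 or at most -2, so actives lie on both sides; inactive = the rest.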 Shown is part of a subset that was picked to be rich in actives.
Hi! Could you answer with just one of these? active, inactive

Use the examples below as a reference point.
SEQUENCE_INPUT	DISCRETE_LABEL
GGAAGUUCCACGUUAUUGUTT against Eif2b2	inactive
CGACUGGAAAAAGAUUGGGTT against Ttf1	inactive
CCAGCAAAAUCACUUAAUATT against Emb	inactive

(Q) Test call, this sequence: GGAAGCGUAAAUAAGUGUCTT against Emp2
(A) inactive

(Q) Hi team, can someone confirm the assay call for GGUUUUGAGCAAAAUUCUATT against Nrd1 ?
(A) inactive

(Q) Name the outcome recorded for GGACUGUUGAAUAAAACCUTT against Rnps1 in the assay.
(A) active

* * *

Experiment: Components of the Cytosolic LPS Sensing Pathway: Gene Identification via Genome-wide siRNA Screen;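 further: robust z of the log signal after scaling to non-targeting control siRNA wells of the plate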
Details: RAW264.7 macrophages, IL-1a HTRF, actives lie on both sides, screened at 100 nM (by protocol), cells primed 5 h with Pam3CSK4 first
About 3,700 (7%) of roughly 53,000 sequences were called active. The entries come from a sample that favours actives as a whole.
Collected z-score values appear next to each entry.
When you answer, write just the number.

SEQUENCE_INPUT	PROPERTY_NAME	OBSERVED
CCUAAUCUAGAGCAACACATT against Ankrd34c	z-score	-1.67

(Q) Give a short answer stating reported z-score for GGCAAAUUAGCUAGUAUCATT against Rai2 .
(A) -2.2

(Q) Please indicate z-score recorded for CCAAAAAAGUUAGUUGUGGTT against Phf6
(A) 1.23

(Q) Give z-score for GCCUAUUCACCAAAUCACATT against Frrs1
(A) 0.408

* * *

Assay: Components of the Cytosolic LPS Sensing Pathway: Gene Identification via Genome-wide siRNA Screen;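 further: robust z of the log signal after scaling to non-targeting control siRNA wells of the plate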
Details: RAW264.7 macrophages, IL-1a HTRF, actives lie on both sides, screened at 100 nM (by protocol), cells primed 5 h with Pam3CSK4 first
Screen size: about 53,000 sequences; about 3,700 (7%) were called active. This excerpt belongs to a sample that is enriched for actives.
Each entry below carries its reported z-score.

Example entries begin here.
SEQUENCE_INPUT	z-score
GGACUUAACUAGUUGACAATT against Pclaf	-1.06 (inactive)
UGCCACUGCCAAAAAAUAATT against Tex18	-0.838 (inactive)
GCCAAUUUGAAGGUUUUCATT against Tlr8	1.58 (inactive)
GGCCUUUGAUGACUUCAUCTT against Cacna1h	0.904 (inactive)
GGAUAUCUUCAUAUUGGUGTT against Ces1f	4 (active)

(Q) Note down z-score recorded for GGUUUUAUCCCUGUUUCCUTT against Naaa
(A) -0.115 (inactive)

(Q) For the sequence GGACUUCUUCACCAUCUGGTT against Lcat , report z-score.
(A) -1.3 (inactive)

(Q) # return recorded z-score for entry GCUAUCACUUUUCAUUAGATT against G0s2
(A) -0.902 (inactive)

(Q) Identify measured z-score associated with GGCCAGAAGAACUAACAGUTT against Cept1
(A) -0.11 (inactive)

(Q) Please give measured z-score of the following entry: GGAGCAUCACUCUUAACAUTT against Krt71
(A) 1.58 (inactive)

(Q) Give the reported value of z-score for this record: GCUAUGUGAAUUUGUAUGATT against Parp11
(A) 0.398 (inactive)

(Q) Identify z-score associated with the sequence GGUACCUCUGUAUUCAGCCTT against Olfr121
(A) 0.78 (inactive)

* * *

Test: Components of the Cytosolic LPS Sensing Pathway: Gene Identification via Genome-wide siRNA Screen;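 further: robust z of the log signal after scaling to non-targeting control siRNA wells of the plate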
Details: RAW264.7 macrophages, IL-1a HTRF, actives lie on both sides, screened at 100 nM (by protocol), cells primed 5 h with Pam3CSK4 first
In all, about 53,000 sequences went through this assay and about 3,700 (7%) were called active.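 How the source made its calls: active means gene knockdowns whose robust z-score for IL-1 alpha signal is at least 2 or at most -2, so actives lie on both sides; inactive means the rest.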 This excerpt belongs to a sample that is enriched for actives.
Outcome field: choose from 1 (yes) for active, 0 (no) for inactive

(Q) Tell me the recorded outcome of this test for UAAAUACUUACCAGCUGGATT against Olfr1306 .
(A) 0 (no)

(Q) Assay outcome for GCAUUAAAGGAGUCCGAAUTT against Cpn1 : what was it?
(A) 0 (no)

(Q) Per the assay record, what outcome was assigned to GGGCUUUGGAUGAACUGCATT against Cldn17 ?
(A) 0 (no)

(Q) Tell me the recorded outcome of this test for GGUGCCAAUCAUUGUUAUGTT against Kcnv1 .
(A) 0 (no)

(Q) Each sequence tested received a call. Report the one for GCCAAGAAACAAUACUCAUTT against Olfr1352 .
(A) 0 (no)

(Q) Name the outcome recorded for GCUAUCUCUGCUAAUAAAGTT against Col6a1 in the assay.
(A) 0 (no)

(Q) Identify the outcome logged in this assay for the sequence shown: CCCUUCUCUGAGACAACACTT against Tcirg1
(A) 0 (no)

(Q) What was the test verdict on GUUACACAGGAGUGUGUAATT against Rnase2a ?
(A) 0 (no)

(Q) State the result this test recorded for GCCUAUUGGCCUGAUAUGUTT against Gpr141b .
(A) 0 (no)

(Q) Hi team, can someone confirm the assay call for GGAAGAAUCUGUUACUUUUTT against Rad1 ?
(A) 0 (no)

(Q) What call does the record list for GGCCAAACUAAUGUUUUUCTT against Prox2 ?
(A) 0 (no)

(Q) I would be grateful if you could indicate the recorded call for CCUUUAUUUCUGUGAAUCUTT against Olfr1467 .
(A) 0 (no)

(Q) Give the logged outcome of this assay for the following sequence: CGACCUGAAAGAUUCGGAATT against Ppara
(A) 0 (no)

(Q) Outcome? UGCAUGGACUUACGAAAGATT against Tas2r115
(A) 0 (no)

(Q) Recorded test call requested for GGGAGAAUUUUUGUGCAAGTT against Capza3
(A) 0 (no)
